Let's look at some molecules and their measured log10 of CC50 at 5 days.
# Assay overview: Test B: Cytotoxicity Assay
# Type: cell-based
# Conditions used: human, uninfected MT-4 cells, CellTiter-Glo
All values: log10 CC50 at 5 days [µM].

// log10 of CC50 at 5 days lookup, molecule = `CC(C)N1CCO[C@](C)(C#Cc2ccc(-c3ccc(Cl)c4c(NS(C)(=O)=O)nn(C)c34)c([C@H](Cc3cc(F)cc(F)c3)NC(=O)Cn3nc(C(F)F)c4c3C(F)(F)[C@@H]3C[C@H]43)n2)C1` , result: 1.29

log10 of CC50 at 5 days for Cc1cc(C#Cc2ncc(-c3ccc(F)c(C(N)=O)c3)c([C@H](Cc3cc(F)cc(F)c3)NC(=O)Cn3nc(C(F)(F)F)c4c3C(F)(F)[C@@H]3C[C@H]43)n2)ccn1 [Compound 18C] is 0.36

Reported log10 of CC50 at 5 days of `Cn1nc(NS(C)(=O)=O)c2c(Cl)ccc(-c3ccc(C#C[C@]4(C)CNCCO4)nc3[C@H](Cc3cc(F)cc(F)c3)NC(=O)Cn3nc(C(F)F)c4c3C(F)(F)[C@@H]3C[C@H]43)c21` : 0.84

According to the records, this molecule `Cn1nc(NS(C)(=O)=O)c2cccc(-c3ccc(C#CC4(O)CCCC4)nc3[C@H](Cc3cc(F)cc(F)c3)NC(=O)Cn3nc(C(F)(F)F)c4c3C(F)(F)[C@@H]3C[C@H]43)c21` displays log10 of CC50 at 5 days of 0.94
